# credit: the supplement of paper PMC11502859

# Test system: HEK293T
# run description: median enrichment of reporter reads in eGFP-reduced (low/intermediate) vs eGFP-high sorted cells (eGFP-extension fusion abundance) (ratio); higher = stronger loss of eGFP-fusion protein abundance (more destabilising extension)
property measured: median enrichment
Please reply with the value in numeric form only.

Entry under review: YGFLGFPSWACLLKA [CSF3R] . Reported median enrichment?
5.35

Follow-up item: LLKTCSTTVLDTH [ATF2]
8.11

Follow-up item: YDHPTTRSAANSGLSLGVAPSLLLPLN [TRIB3]
6.29

Follow-up item: YKLGLCFLLVTEDWVAP [SOAT1]
9.15

Follow-up item: QESKSTLPSHHHGPTGYPEQLHTLLEVSRSLPA [ADAMTSL1]
2.98

Follow-up item: YGEKIRNGCCT [WDR64]
0.76

Follow-up item: YNIVYVFCHL [KIAA1586]
8.8

Follow-up item: SGVLSSHFCVTCHFLPLVPCRFGMKMVSFAVFNLFFIMVEYSSRSFVLVYEENLHIFFVFQ [CHIC1]
9.4

Follow-up item: YLSSAPVVVVVLNFRI [ZSCAN21]
16.1

Follow-up item: YKHESFIHTFRQAREVQQVTAKGGNCSHLPPILPAENPDCIQCPQCSHHFAPKVAEQHIPKCKTIKNCLPPLRKHYS [ZC2HC1C]
0.72

Follow-up item: PTASSLQVQLKPLSSGGRHVERAGRPTAAENRAGTGSSCSAFPSFGDAGSAAPKHLPAPHSTVSEDSSLLPVKLPCAGMAWTC [CDC14B]
2.89

Follow-up item: LPLPFTLT [ATF6B]
3.98

Follow-up item: GSGLCLVLSLPGRCSTPYRGGQLRAWAASSWTQLSRSSCSAQGGHMSEPRSWTSTQEDASEGKEIFYGLRPECQY [KLRG2]
7.23

Follow-up item: WTGFAYLVLTLHHHHLMPTCPHPAELLSGHSLLLPFLLPLALPGPACTPVGWKCTAGSGSGSAPLWDPTFFSSLLLK [PTPN23]
7.32

Follow-up item: CATLSVGFFLEDSTLLPHVLSQLQS [CSTF1]
8.47

Follow-up item: WSPLSRDSGKGGFLHPTPLLPWL [KIAA1191]
5.6

Follow-up item: YNSEVNVLKYNY [TEFM]
0.662

Follow-up item: LVCPLATDTVGNQTLSWSLLLAHSTSKWI [HIBADH]
12.8

Follow-up item: RPSTKGPPSWCSITSFLKGISFFTTLS [FANCE]
13.8

Follow-up item: LEIEKKKRISTQVFFFRNEDKI [ZNF24]
2.65

Follow-up item: LATATALPVRQAPKGGGGMAQEEGCEEEEGEMAVASGSALQL [FAM228A]
0.27

Follow-up item: GGLLSVLGTPGPYRTRAAALSHPLGRRYGSSVPLASMWSGGDAAPVVGTSWGDPRPSLAGLSPVPISHSGPRADILIK [GUK1]
2.98

====

Consider the following sequences; for each one, report its median enrichment.
# System: HEK293T
# run description: median enrichment of reporter reads in eGFP-reduced (low/intermediate) vs eGFP-high sorted cells (eGFP-extension fusion abundance) (ratio); higher = stronger loss of eGFP-fusion protein abundance (more destabilising extension)

Entry under review: QHEKDWGGQGGQPAEMRGAGGHSPFSGLDPLRSSPTSCTDNAL [MAP3K9] . Reported median enrichment?
0

Follow-up item: SSSSSSSSSS [Ser10]
0.553

Follow-up item: ACVARPDKHLQMAAAPTWDLPRRLEQKGLSLGWCFSSRVLGCMFCTASREGVSGGHHLWDTGSKGPVHSVISFLAPASPTSPR [TMEM141]
4.72

Follow-up item: GPPSTSQQQD [DENND5A]
0.577

Follow-up item: YMSEHGLSQACLHGIRLATPARPPGWFFSS [TJP2]
4.38

Follow-up item: LNGSHSVTQAGVKWPNHSSLQPQPGRFR [COX17]
8.21

====

# System: HEK293T
# run description: median enrichment of reporter reads in eGFP-reduced (low/intermediate) vs eGFP-high sorted cells (eGFP-extension fusion abundance) (ratio); higher = stronger loss of eGFP-fusion protein abundance (more destabilising extension)
Parameter threshold = 1. Response is yes (1) when median enrichment meets or exceeds it, else no (0).

Does median enrichment meet or surpass 1 for KQWQQLGLETSRWCWDHLSLLLLASHSL [PACRG] ?
yes (1)

Follow-up item: LSLTALPGANSGT [ANKZF1]
yes (1)

Follow-up item: HHHHHHHHHH [His10]
no (0)

Follow-up item: YDGHISFIGE [CFLAR]
no (0)

Follow-up item: EPKEVPGTVSDLERSQKENNIIK [CELA2A]
no (0)

Follow-up item: IPVPEHQIPRQLMRLAQCVTEAPGSQQSRAYSAHQAEQATGRDDASGQGSAGDRDYRPAVSGPLQRLPTQGLVGVKHDDNTYT [CCDC137]
no (0)

Follow-up item: ADLTPAQPPPPTSHSGLVLCLLFRTPLCPPKRQKKKKKKKSKKTSEKSAAKKWMSCNFSRDGAGGVCVPTGPGGPLRGGHAAR [PITX1]
yes (1)

Follow-up item: QELVGSLRTPVLLTPSF [TSNAXIP1]
yes (1)

Follow-up item: LRRGGKREKMERGAGNGGERTSKETEMKT [ZSWIM9]
yes (1)

Follow-up item: QTGHPTHLHAKILPASSLRVPW [UBL4B]
yes (1)

Follow-up item: YVLILPSH [HSPA4L]
yes (1)

====

# Test system: HEK293T
# run description: median enrichment of reporter reads in eGFP-reduced (low/intermediate) vs eGFP-high sorted cells (eGFP-extension fusion abundance) (ratio); higher = stronger loss of eGFP-fusion protein abundance (more destabilising extension)
Classify on median enrichment using lower: < 2; middle: ≥ 2 and < 7; upper: ≥ 7

Into which category would you place DDDDDD [Asp06] ?
lower

Follow-up item: LLASIS [TENT2]
middle

Follow-up item: GGGGGGGGGG [Gly10]
upper

Follow-up item: KQIKLDEIYNYLIAQ [MDH1B]
upper

Follow-up item: SYLQCPCCVALQMRPLQTRPA [WDCP]
upper

Follow-up item: LISHSYLLKYI [ELAVL4]
upper

Follow-up item: SHHQELTHT [NUP88]
lower

Follow-up item: YRHLVVFWEQKNYFLLTRLFVLKTIFLNLS [EP300]
upper

Follow-up item: WCPPKP [FAM8A1]
lower

Follow-up item: RERGLSSSLPAPSSPRPSSLCAW [HOXC10]
middle

Follow-up item: LPLVLYSNLFGNDSSTHRTACVRAHTHTHTHTHTHH [GNAO1]
middle

Follow-up item: SVHQLPAPALAPTPSSLKHPPAHCGQLCATRAHGAPPVL [BAIAP3]
lower

Follow-up item: YMHCSGS [STT3B]
middle

====

# Test system: HEK293T
# run description: median enrichment of reporter reads in eGFP-reduced (low/intermediate) vs eGFP-high sorted cells (eGFP-extension fusion abundance) (ratio); higher = stronger loss of eGFP-fusion protein abundance (more destabilising extension)
Consider the following sequences; for each one, report its median enrichment.
Please reply with the value in numeric form only.

Entry under review: RYPGASPVTVTAAPPPRLLSASNHLDSPEESPMETALIRCPAAARGPRSPRVPLKECLGHIRPARSRERAPNARPG [CUX1] . Reported median enrichment?
4.54

Follow-up item: LVVDVWGI [XRCC5]
4.14

Follow-up item: YLICTNMTQMFSKITGKPLTSICVSQLTEKKITCSSFIISHWNII [SENP7]
3.44

Follow-up item: SIVLSTNLKSKGSSQSQPLCP [HIST1H3E]
3.49

Follow-up item: PPPPPPPPP [Pro09]
3.45

Follow-up item: CACPHPPSSLPSC [PADI1]
0.421

Follow-up item: SVIPGLSTPASPPAAGTALTLLSDPHSFPEMLRMFISPAPDPMSPGLRVCFPHIGLTVSL [KLK5]
12.1

Follow-up item: RTRIPNYISTDAFHFNSS [SAMSN1]
2.43

Follow-up item: WLVGLGSSARTSSPALAVVVQALQSAAGLFIKGIYICK [NRN1L]
7.25

Follow-up item: WHRRTPGDFLYICRLRLFVTSKWDIV [TAF4]
5.8

Follow-up item: QHWGRLPHPASGKPVAGHRVVPPVPS [SCLY]
11

====

# Tested on: HEK293T;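 also: lentiviral eGFP-IRES-mCherry reporter pool sorted by FACS 96 h post-transduction, gated on mCherry-high cells, Illumina read counts normalized per million, median across four biological replicates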
# run description: median enrichment of reporter reads in eGFP-reduced (low/intermediate) vs eGFP-high sorted cells (eGFP-extension fusion abundance) (ratio); higher = stronger loss of eGFP-fusion protein abundance (more destabilising extension)
Classify on median enrichment using bottom = under 4, middle = from 4 up to 8, top = 8 and over

Into which category would you place QEDFKVNFPSLFLN [CSN2] ?
bottom

Follow-up item: RQGRLRGQAGGQQLQEGSDNSPPAWAHLLLLLLLGSAPQTRLWPPSQCPVTSPE [CRACR2B]
top

Follow-up item: YSYSVMTLVIFCVL [HTR1D]
top

Follow-up item: YIPVSIQKSNKKFSVKCAILLCVL [RPL11]
bottom

Follow-up item: PWPHQWHRGAPATGWPSGQPEHQGHCQPAAEAGEQDRDRPQRALPGQPSGFLRDGGRAGGRWRGMVDVPKRCQRAAGFRILLC [DECR2]
bottom

Follow-up item: WYSFHYSI [BTN3A3]
middle

Follow-up item: ACKNWFSSLSHFVIHL [Degron CL1]
top

Follow-up item: SQESRASLPRIAFIPKFAWK [CMBL]
bottom

Follow-up item: CSLHLGGGSLGKSTQTCTTVQQQGSLLPAVPPPPVYTT [SEZ6]
top

Follow-up item: LKWAEPKFGVLHRAPFLHPWGGAQLGATLTMPRPHPVQHSQSSHLHPRTVGAGRHFPLEHVLRSITLGPTARLSLPPGSCMRS [SCARA5]
middle

Follow-up item: YNIYSYDKDT [HCRTR2]
middle

Follow-up item: RWCWGLGRGGELGCQNSMDMFLWMEGRAFVTFCTYSFCGCFDKGMARELVSIISFILFWL [BCO1]
top

Follow-up item: QRKKRKTALGLAYGLRGCCC [WEE2]
middle

Follow-up item: YSGLPVASSSTTELQTNHPKCRLDGEGKDWGGRVNSEGCPLPIPPGP [PODXL]
top

Follow-up item: WHHLIDYGTRKSEGFHIR [PLPP6]
middle

Follow-up item: RFPSPLLLLLLDGNHSLDHACSL [TUBG2]
bottom

Follow-up item: SRDLDLGGVVRSSGRVPPGSPGEYMSPALGGVCYWPPTFLPRWTVLL [OXCT2]
bottom

Follow-up item: WSPTRPERPEMVLTMLPANRSRKPACE [ANXA2]
bottom

Follow-up item: REALHLNLFMS [ERI2]
bottom

Follow-up item: KECSKCGGKS [ZNF671]
bottom

Follow-up item: WTHPLVVDRLPGTTIIPGPPRASEFETLAEIK [TBC1D7]
middle
